# System: HCT-116 colon
# measurementNotes: NCI tumour cell line growth inhibition, 48 h; in the data active = GI50 below about 0.43 µM; inactive = the rest
Select the matching outcome among active, inactive

Here are 4 molecules together with their reported answers.
>  <smilesString>
Cl.[Pt].[c-]1ccccc1-c1ccccn1.c1ccc(P(c2ccccc2)C([PH+](c2ccccc2)c2ccccc2)[PH+](c2ccccc2)c2ccccc2)cc1

>  <category>
inactive

$$$$
>  <smilesString>
COc1ccc(-c2nn(-c3cccc(Cl)c3)cc2C=C(C#N)C#N)cc1

>  <category>
inactive

$$$$
>  <smilesString>
COc1ccc(OC)c(-c2nc3sccn3c2/C=C2/C(=O)Nc3ccc(Cl)cc32)c1

>  <category>
inactive

$$$$
>  <smilesString>
S=c1nc(-c2ccccc2)oc(=NC2CCCCC2)n1C1CCCCC1

>  <category>
inactive

$$$$

Consider the additional molecule presented here.
Given "COc1cc(-c2cc(-c3ccc(N(C)C)cc3)nc(N3CCOCC3)c2C#N)cc(OC)c1OC" , state the outcome it received in this test.
active

* * *

# System: NCI/ADR-RES ovarian
# measurementNotes: NCI tumour cell line growth inhibition, 48 h
Please respond with reported TGI for every item in the list.

Guide cases for TGI, answers given:
>  <compound>
C#CCNC(Cc1cnc[nH]1)C(=O)O (configuration not stated)

>  <reading>
> 100 µM

$$$$
>  <compound>
CN(C)CCCNc1nn2c(=O)c3ccccc3nc2c2ccccc12

>  <reading>
35.5 µM

$$$$
>  <compound>
O=C(N/N=C\c1cccc2ccccc12)Nc1ccc([N+](=O)[O-])cc1

>  <reading>
> 71.4 µM

$$$$
>  <compound>
C#CCN1C(=O)/C(=c2\sc3n(c2=O)C2C(NN=3)N(CC)C(=O)N2CC)c2ccccc21 (configuration not stated)

>  <reading>
21.9 µM

$$$$
>  <compound>
COc1ccc(OC)c(-c2nc3sccn3c2/C=C2/C(=O)Nc3ccc(Cl)cc32)c1

>  <reading>
89.8 µM

$$$$

For the 7 compounds below, give their TGI values.
1. CC(C)C[C@H](NC(=O)[C@H](CCc1ccccc1)NC(=O)CN1CCOCC1)C(=O)N[C@@H](Cc1ccccc1)C(=O)N[C@@H](CC(C)C)C(=O)[C@@]1(C)CO1
2. CN=C(Nn1cnnc1)OC
3. Cc1c2c3cc(O)ccc3nc-2n(C)c2ccccc12
4. CC1(C)N=C(N)N=C(N)N1c1cccc(C#N)c1
5. CCOC(=O)c1nc2c3c(ncn2n1)Oc1c(c(-c2ccccc2)nn1-c1ccccc1)C3c1ccc(Cl)cc1 (configuration not stated)
6. c1ccc(CCN2CCCCCC2)nc1
7. CC(CCC(=O)O)[C@H]1CCC2[C@H]3C(CC[C@@]21C)[C@@]1(C)CCC(O)C[C@H]1C[C@@H]3O (some centres not stated)

1: > 100 µM; 2: > 100 µM; 3: 3.4 µM; 4: > 100 µM; 5: > 100 µM; 6: > 100 µM; 7: > 100 µM

* * *

# System: NCI-H460 lung
propertyMeasured: GI50

>  <molecule>
C#CCN1C(=O)/C(=c2\sc3n(c2=O)C2C(NN=3)N(CC)C(=O)N2CC)c2ccccc21 (stereo not drawn)

>  <GI50>
439 nM

$$$$
>  <molecule>
COc1ccc(/C=C/c2c(C(=O)/C=C/c3ccc(Cl)cc3)c(C)nc3ccccc23)cc1

>  <GI50>
2130 nM

$$$$

# ---- query molecule ----
Returns the measured GI50 for the input molecule. Input: "O=C1NC(=O)/C(=C/C=C/c2ccccc2)S1"
2830 nM

Hello, the source for this data is PubChem BioAssay (NCI), in case you need it.
